Recorded measurements of pIC50, one per entry
biological target: wild type human RORγt LBD (Homo sapiens); construct: expressed in transfected cells; host or cells: HEK293T; test: RORγt (LBD) Reporter Assay (GAL4-luciferase, HEK293T cells); format: cell-based; conditions: HEK293T cells; value after the comma with ∼, > or < could not be included in the average
pIC50: −log10 of the molar value.

| molecule | limit-qualifier | pIC50 |
| --- | --- | --- |
| COc1nc2ccc(C(O)(c3ccc(C)nc3C)c3cnnn3C)cc2c(Cl)c1Cc1ccc(-n2cncn2)cc1 (single isomer, unassigned) [Example 22c] | = | 7.96 |
| COc1nc2ccc(C(O)(c3ccc(C#N)cc3)c3cncn3C)cc2c(Cl)c1Cc1ccc(C(F)(F)F)nc1 (single isomer, unassigned) [Example 38b] | = | 6.60 |
| CC(=O)N1CCC(C(O)(c2ccc(F)cc2)c2ccc3nc(OC(F)F)c(Cc4cncnc4)c(OC(F)F)c3c2)CC1 (stereo not shown) | = | 5.92 |
| COc1nc2ccc(C(O)(c3ccc(F)cc3)C3CCN(C(C)=O)CC3)cc2c(Cl)c1Cc1ccc(F)cc1 (single isomer, unassigned) [Example 51c] | < | 5.22 |

----------
molecular target: wild type human RORγt LBD (Homo sapiens, UniProt P51449); construct: expressed in transfected cells; host or cells: HEK293T; experiment: RORγt (LBD) Reporter Assay (GAL4-luciferase, HEK293T cells); format: cell-based; settings: HEK293T cells; value after the comma with ∼, > or < could not be included in the average

| molecule | unit-descriptor | limit-qualifier | IC50 |
| --- | --- | --- | --- |
| COc1nc2ccc(C(O)(c3cncn3C)c3cnnn3C)cc2c(Cl)c1Cc1ccc(C(F)(F)F)cc1 (single isomer, unassigned) [Example 89b] | nM | < | 2 |
| CC(=O)N1CCC(C(O)(c2ccccc2)c2ccc3nc(Cl)c(Cc4cncnc4)c(OC(F)F)c3c2)CC1 (single isomer, unassigned) [Example 73c] | nM | > | 6000 |
| Cc1cc(C(O)(c2ccnc(C(F)(F)F)c2)c2cncn2C)cc2c(C#N)c(Cc3ccc(-n4cccn4)cc3)c(C#N)nc12 (single isomer, unassigned) [Example 83b] | nM | = | 13 |
| COc1nc2ccc(C(O)(c3ccc(C#N)cc3)c3cncn3C)cc2c(Cl)c1Cc1ccc(-n2cncn2)cc1 (single isomer, unassigned) [Example 14b] | nM | = | 120 |
| COc1nc2ccc(C(O)(c3ccccc3)C3CCN(C(C)=O)CC3)cc2c(Cl)c1Cc1ccc(-n2cncn2)cc1 (single isomer, unassigned) [Example 18c] | nM | = | 88 |

----------
molecular target: wild type human RORγt ligand binding domain (RORyt LBD) (Homo sapiens, UniProt P51449); construct: His-tag (N); TurboTEV protease cleavage site (ENLYFQG) (N); experiment: RORγt ThermoFluor assay (thermal shift, binding affinity KD)
pKd: −log10 of the molar value.

| molecule | pKd |
| --- | --- |
| Cn1cncc1C(O)(c1ccc(C(F)(F)F)nc1)c1ccc2nc(N3CCOCC3)c(Cc3ccc(-n4cccn4)cc3)c(Cl)c2c1 (single isomer, unassigned) [Example 146b] | 7.08 |
| COc1nc2ccc(C(O)(c3cncn3C)C3CCOCC3)cc2c(Cl)c1Cc1ccc(-n2cccn2)cc1 (single isomer, unassigned) [Example 1c] | 8.82 |
| Cn1cncc1C(O)(c1ccc(Cl)cc1)c1ccc2nc(N3CCC3)c(Cc3ccc(-n4cccn4)cc3)c(Cl)c2c1 (stereo not drawn) [Example 138a] | 6.89 |

----------
Biological target: wild type human RORγt ligand binding domain (RORyt LBD) (Homo sapiens, UniProt P51449)
Construct: His-tag (N); TurboTEV protease cleavage site (ENLYFQG) (N); made in house; host or cells: E. coli (pHIS1, modified pET vector)
Sequence (P51449 258-518): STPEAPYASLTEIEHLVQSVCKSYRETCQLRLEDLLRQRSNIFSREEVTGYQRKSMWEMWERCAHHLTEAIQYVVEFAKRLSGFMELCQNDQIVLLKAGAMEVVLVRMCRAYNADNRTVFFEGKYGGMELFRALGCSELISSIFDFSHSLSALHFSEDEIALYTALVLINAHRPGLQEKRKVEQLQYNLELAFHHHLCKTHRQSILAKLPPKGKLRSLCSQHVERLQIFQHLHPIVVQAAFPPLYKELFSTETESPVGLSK
Assay: RORγt ThermoFluor assay (thermal shift, binding affinity KD)

| molecule | unit-descriptor | Kd |
| --- | --- | --- |
| Cn1cc(-c2nc3ccc(C(O)(c4ccc(C(F)(F)F)nc4)c4cncn4C)cc3c(C#N)c2Cc2ccccc2)cn1 (single isomer, unassigned) [Example 112b] | nM | 2200 |
| COc1nc2ccc(C(O)(c3ccc(C#N)cc3)c3cncn3C)cc2c(Cl)c1Cc1ccc(C(F)(F)F)nc1 (single isomer, unassigned) [Example 38b] | nM | 150 |
| Cc1ccc(C(O)(c2ccc3nc(NC4CC4)c(Cc4ccc(C(F)(F)F)cc4)c(Cl)c3c2)c2cnnn2C)c(C)n1 (single isomer, unassigned) [Example 143b] | nM | 1700 |
| Cn1cc(-c2nc3ccc(C(O)(c4ccc(C(F)(F)F)nc4)c4cncn4C)cc3c(C#N)c2Cc2ccccc2)cn1 (stereo not shown) [Example 112a] | nM | 6600 |
| Cn1cncc1C(O)(c1ccc(C(F)(F)F)nc1)c1ccc2nc(N3CC(F)(F)C3)c(Cc3ccc(-n4cccn4)cc3)c(Cl)c2c1 (stereo not shown) [Example 135a] | nM | 36 |
| COc1nc2ccc(C(O)(c3ccccc3)C3CCN(C(C)=O)CC3)cc2c(Cl)c1Cc1ccc(-n2cncn2)cc1 (single isomer, unassigned) [Example 18c] | nM | 50 |
| Cn1cncc1C(O)(c1ccc(C(F)(F)F)nc1)c1ccc2nc(N3CC(F)(F)C3)c(Cc3ccc(-n4cccn4)cc3)c(Cl)c2c1 (single isomer, unassigned) [Example 135b] | nM | 160 |
| CCc1nc2ccc(C(O)(c3ccccc3)C3CCN(C(C)=O)CC3)cc2c(Cl)c1Cc1ccc(-n2cccn2)cc1 (stereo not shown) | nM | 3 |
| Cn1cncc1C(O)(c1ccc(C(F)(F)F)nc1)c1ccc2nc(N3CC(F)(F)C3)c(Cc3ccc(-n4cccn4)cc3)c(Cl)c2c1 (single isomer, unassigned) [Example 135c] | nM | 23 |
| COc1nc2ccc(C(O)(c3ccc(C)nc3C)c3cnnn3C)cc2c(Cl)c1Cc1ccc(-n2cncn2)cc1 (single isomer, unassigned) [Example 22b] | nM | 480 |
| CCc1nc2ccc(C(O)(c3cnnn3C)C3CN(C(C)=O)C3)cc2c(C#N)c1Cc1ccc(C(F)(F)F)cc1 (single isomer, unassigned) [Example 36] | nM | 0.73 |
| CC(=O)N1CC(C(O)(c2ccc3nc(C)c(Cc4ccc(C(F)(F)F)cc4)c(Cl)c3c2)c2cnnn2C)C1 (single isomer, unassigned) [Example 32b] | nM | 0.86 |
| COCCN(C)c1nc2ccc(C(O)(c3ccc(C(F)(F)F)nc3)c3cncn3C)cc2c(Cl)c1Cc1ccc(-n2cccn2)cc1 (stereo not shown) | nM | 97 |
| Cn1cncc1C(O)(c1ccc(C(F)(F)F)nc1)c1ccc2nc(N3CCCC3)c(Cc3ccc(-n4cccn4)cc3)c(Cl)c2c1 (single isomer, unassigned) [Example 145c] | nM | 810 |
| CCc1nc2ccc(C(O)(c3ccc(C)nc3C)c3cnnn3C)cc2c(Cl)c1Cc1ccc(C(F)(F)F)cc1 (single isomer, unassigned) [Example 23c] | nM | 0.03 |
| COc1nc2ccc(C(O)(c3ccc(C#N)cc3)c3cncn3C)cc2c(Cl)c1Cc1ccc(C(F)(F)F)nc1 (single isomer, unassigned) [Example 38c] | nM | 5.2 |
| COc1ccc(C(O)(c2cccnc2)c2ccc3nc(OC)c(Cc4ccc(-n5cccn5)cc4)c(Cl)c3c2)cc1 (stereo not shown) | nM | 68 |
| CCCCc1nc2ccc(C(O)(c3cccnc3)c3cccc(F)c3)cc2c(Cl)c1Cc1ccc(-n2cccn2)cc1 (stereo not shown) | nM | 3100 |
| Cn1cncc1C(O)(c1ccc(C(F)(F)F)nc1)c1ccc2nc(N3CC(F)C3)c(Cc3ccc(-n4cccn4)cc3)c(Cl)c2c1 (single isomer, unassigned) [Example 147c] | nM | 5.2 |

----------
// reported pIC50 for each item listed
target: wild type human RORγt LBD (Homo sapiens, UniProt P51449); construct: expressed in transfected cells; host or cells: HEK293T; assay: RORγt (LBD) Reporter Assay (GAL4-luciferase, HEK293T cells); type: cell-based; conditions: HEK293T cells
pIC50: −log10 of the molar value.
parameter: pIC50

| compound | value-observed |
| --- | --- |
| Cn1cncc1C(O)(c1ccc(C(F)(F)F)nc1)c1ccc2nc(N3CCCC3)c(Cc3ccc(-n4cccn4)cc3)c(Cl)c2c1 (single isomer, unassigned) [Example 145c] | 6.11 |
| Cc1cc(C(O)(c2ccc(C(F)(F)F)nc2)c2cncn2C)cc2c(Cl)c(Cc3ccc(-n4cccn4)cc3)c(N3CCC3)nc12 (stereo not drawn) [Example 137a] | 6.77 |
| CON(C)c1nc2ccc(C(O)(c3ccc(C(F)(F)F)nc3)c3cncn3C)cc2c(N(C)OC)c1Cc1ccc(-n2cccn2)cc1 (stereo not drawn) | 5.82 |
| COc1nc2ccc(C(O)(c3oc(C)nc3C)c3cnnn3C)cc2c(Cl)c1Cc1ccc(C(F)(F)F)cc1 (stereo not drawn) [Example 156a] | 8.18 |
| COc1nc2ccc(C(O)(c3ccc(F)cc3)c3cccnc3)cc2c(Cl)c1Cc1ccc(-n2cccn2)cc1 (single isomer, unassigned) [Example 158b] | 6.77 |
| COc1nc2ccc(C(O)(c3cnnn3C)C3CN(C(=O)OC(C)(C)C)C3)cc2c(Cl)c1Cc1ccc(C(F)(F)F)cc1 (stereo not drawn) | 7.15 |
| Cn1cncc1C(O)(c1ccc(Cl)cc1)c1ccc2nc(N3CCC3)c(Cc3ccc(-n4cccn4)cc3)c(Cl)c2c1 (single isomer, unassigned) [Example 138b] | 6.25 |
| Cn1cncc1C(O)(c1ccc(C(F)(F)F)nc1)c1ccc2nc(N3CC(F)C3)c(Cc3ccc(-n4cccn4)cc3)c(Cl)c2c1 (single isomer, unassigned) [Example 147b] | 6.68 |
| Cc1cc(C(O)(c2ccc(C(F)(F)F)nc2)c2cncn2C)cc2c(Cl)c(Cc3ccc(-n4cccn4)cc3)c(N3CCC3)nc12 (single isomer, unassigned) [Example 137b] | 6.80 |
| COc1nc2ccc(C(O)(c3cccnc3)c3ccc(Cl)c(Cl)c3)cc2c(Cl)c1Cc1ccc(-n2cccn2)cc1 (stereo not drawn) [Example 161a] | 7.24 |
| Cc1cc(C(O)(c2ccc(Cl)cc2)c2cncn2C)cc2c(Cl)c(Cc3ccc(-n4cccn4)cc3)c(S(C)(=O)=O)nc12 (stereo not drawn) | 5.80 |
| CCN(CC)c1nc2ccc(C(O)(c3ccc(Cl)cc3)c3cncn3C)cc2c(C#N)c1Cc1ccc(-n2cccn2)cc1 (single isomer, unassigned) [Example 154c] | 6.00 |
| COc1nc2ccc(C(O)(c3ccc(F)cc3)c3cncn3C)cc2c(Cl)c1Cc1ccc(-n2cccn2)cc1 (single isomer, unassigned) [Example 160b] | 6.17 |
| Cc1ccc(C(O)(c2ccc3nc(Cl)c(Cc4ccc(C(F)(F)F)cc4)c(NC4CC4)c3c2)c2cnnn2C)c(C)n1 (stereo not drawn) [Example 144a] | 7.13 |
| Cc1ccc(C(O)(c2ccc3nc(Cl)c(Cc4ccc(C(F)(F)F)cc4)c(NC4CC4)c3c2)c2cnnn2C)c(C)n1 (single isomer, unassigned) [Example 144c] | 7.47 |
| Cc1cc(C(O)(c2ccc(Cl)cc2)c2cncn2C)cc2c(Cl)c(Cc3ccc(-n4cccn4)cc3)c(N3CCC3)nc12 (stereo not drawn) [Example 136a] | 6.85 |

Where these numbers come from: patent EP3057951B1
